The reported measurements were obtained from the OPERA property sets (Mansouri et al. 2018).

# note: exactly 40 °C is not below, so it is false; use true for melting point strictly under it

CCOc1ccc2cc(O)c(O)cc2c1: false
CCC(C)C: true

Ask: Consider the compound C=Cc1ccc(C)cc1C . Is its melting point strictly less than 40 °C?
Result: true

Ask: Consider the compound CNc1ccc(N)cc1 . Is its melting point strictly less than 40 °C?
Result: true

Ask: Consider the compound c1ccc(O[Si](Oc2ccccc2)(Oc2ccccc2)Oc2ccccc2)cc1 . Is its melting point strictly less than 40 °C?
Result: false

Ask: Consider the compound NC(=O)c1ccc(O)cc1 . Is its melting point strictly less than 40 °C?
Result: false

Ask: Consider the compound Cc1c(F)c(F)c(COC(=O)C2C(/C=C(\Cl)C(F)(F)F)C2(C)C)c(F)c1F (centres undefined) . Is its melting point strictly less than 40 °C?
Result: false

Ask: Consider the compound C[Si](C)(C)Cl . Is its melting point strictly less than 40 °C?
Result: true

Ask: Consider the compound CC(Cl)(Cl)C(=O)O . Is its melting point strictly less than 40 °C?
Result: true

Ask: Consider the compound CNC[C@H](O)c1ccc(O)c(O)c1.O=C(O)[C@H](O)[C@@H](O)C(=O)O . Is its melting point strictly less than 40 °C?
Result: false

Ask: Consider the compound CCNCC(O)c1cccc(O)c1 (centres undefined) . Is its melting point strictly less than 40 °C?
Result: false

Ask: Consider the compound CCOC(=O)NC(N)=O . Is its melting point strictly less than 40 °C?
Result: false

Ask: Consider the compound O=C(O)c1c(Cl)c(Cl)c(Cl)c(Cl)c1C(O)=Nc1cccc(Cl)c1Cl . Is its melting point strictly less than 40 °C?
Result: false

Ask: Consider the compound O=S(=O)(c1ccc(Cl)cc1)c1cc(Cl)c(Cl)cc1Cl . Is its melting point strictly less than 40 °C?
Result: false

* * *

Reported endpoint: melting point (°C)
One number for each entry, in °C.

Field: melting point. Fill in for each record below.
1. O=C(O)c1ccccc1C(c1ccc(O)cc1)c1ccc(O)cc1
2. CCCCC(O)(Cn1cncn1)c1ccc(Cl)cc1Cl (centres undefined)

Result:
1: 230; 2: 111

* * *

Exercise: state measured log10 vapour pressure (mmHg) for each of the compounds provided.

Field: log10 vapour pressure (mmHg). Fill in for each record below.
1. COP(=S)(OC)Oc1ccc([N+](=O)[O-])cc1
2. COP(=O)(OC)OC(=CCl)c1cc(Cl)c(Cl)cc1Cl

Result:
[-5.46, -7.38]

Field: log10 vapour pressure (mmHg). Fill in for each record below.
1. CN(C)CCO
2. CCC(C)OC (centres undefined)
3. CCCCCCCc1ccccc1
4. FC1(F)C(F)(F)C(F)(Cl)C1(F)Cl (centres undefined)
5. Cn1cccc1

Result:
0.502
2.32
-1.51
2.36
1.33

* * *

# note: exactly 60 °C is not below, so it is no; use yes for melting point strictly under it

Example entries begin here.
CC(C)c1ccc2ccccc2c1: yes
O=C(CO)[C@@H](O)[C@H](O)[C@@H](O)CO: no
CCC(C)OC (stereo not drawn): yes
CCOc1ccc2c3c1O[C@H]1[C@@H](O)C=C[C@H]4[C@@H](C2)N(C)CC[C@@]341: no
COc1cc(C)ccc1O: yes

Ask: Consider the compound CC(C)N(CCC(C(N)=O)(c1ccccc1)c1ccccn1)C(C)C (stereo not drawn) . Is its melting point strictly less than 60 °C?
Result: no

Ask: Consider the compound Cc1ccc(Br)cc1C . Is its melting point strictly less than 60 °C?
Result: yes

Ask: Consider the compound Clc1ccc2nccnc2c1 . Is its melting point strictly less than 60 °C?
Result: no

Ask: Consider the compound CCCS . Is its melting point strictly less than 60 °C?
Result: yes

* * *

Exercise: state measured log10 Koc (L/kg) for each of the molecules provided.

A selection of reference data follows.
NC(=O)Nc1cccc(C(F)(F)F)c1: 1.98
NC(=O)Nc1cccc(Cl)c1: 2.01
CC(=O)Nc1cccc(Br)c1: 2.01
Cc1ccc(NC(=O)N(C)C)cc1Cl: 2.02

With those in mind, consider the next molecule.
Ask: # input molecule: Cc1cc(Cl)ccc1N=CN(C)C ; wanted: its log10 Koc (L/kg)
Result: 2.91

* * *

Exercise: state measured melting point for each of the compounds provided.
Give bare numbers, in °C.

A selection of reference data follows.
Cc1cc(C)c([N+](=O)[O-])c(C)c1: 44
CCOc1nc(NC)nc(NC(=O)NS(=O)(=O)c2ccccc2C(=O)OC)n1: 194
CC(=O)Oc1ccc(-c2ccccc2)cc1: 89
CC(=O)OC(C)C: -73.4
Nc1ccc(N)c(N)c1: 97.3

Field: melting point. Fill in for each record below.
1. CCCCCCCCCCCCCCCCCCOCC(O)CO (configuration not stated)
2. Fc1ccccc1F

Result:
1. 70.5
2. -34

* * *

Exercise: state measured boiling point for each of the compounds provided.
Give bare numbers, in °C.

COC(=O)C1CCCCC1: 183
C=CCCCC: 63.4
CC(C)COC(=O)C(C)C: 149
CCC(CC)CCl: 126
ClCOCCl: 106

Field: boiling point. Fill in for each record below.
1. CCS(=O)(=O)CC
2. ClCC(Cl)CCl
3. COC(=O)CC(C)=O
4. CCCNCC

Result:
[248, 157, 172, 81]

Field: boiling point. Fill in for each record below.
1. CCN=Cc1ccccc1
2. FC(F)(F)C(Cl)=CCl
3. C1CCCNCC1
4. CCOC(=O)CCc1ccccc1
5. FC(F)(Cl)C(F)(F)C(F)(F)C(F)(F)C(F)(F)C(F)(F)C(F)(F)C(F)(F)Cl
6. CCC(C)(C)C(C)(C)CC

Result:
196
53.7
138
247
151
170

Field: boiling point. Fill in for each record below.
1. CC(C)c1ccc(O)c(O)c1
2. CCCCCC(=O)CCC
3. Cc1c(C)c(C)c(N)c(C)c1C

Result:
1: 271; 2: 188; 3: 278

Field: boiling point. Fill in for each record below.
1. CN1CCN(C)C1=O
2. CCOC(=O)CC#N

Result:
1: 221; 2: 210

Field: boiling point. Fill in for each record below.
1. Fc1cccc(F)n1
2. CC(C)CCc1ccccc1
3. CCCCCCCCCCCC(=O)OCC
4. CCCC(O)CCC

Result:
125
195
271
156

Field: boiling point. Fill in for each record below.
1. CC=CC(C)(C)O
2. C=C(Cl)CCl

Result:
1: 112; 2: 94

Field: boiling point. Fill in for each record below.
1. CCC(Cl)CC
2. C1=CCC1
3. CCCCOC(=O)CCCCCCCCC(=O)OCCCC
4. CCCc1ccccc1

Result:
1. 97.5
2. 2
3. 344
4. 159

Field: boiling point. Fill in for each record below.
1. C=C1C(O)CC2(C(C)C)CC12 (centres undefined)
2. Cc1cccc2[nH]ccc12
3. CO[Si](OC)(OC)OC
4. FC(F)=C(F)I
5. CC(C)(Br)[N+](=O)[O-]
6. Fc1ccccc1F

Result:
1. 208
2. 267
3. 121
4. 30
5. 153
6. 94

* * *

Exercise: state measured log10 Koc (L/kg) for each of the molecules provided.
Give bare numbers.

CNC(=O)Oc1cccc2c1OC(C)(C)C2: 1.75
CC1=CC(=O)CC(C)(C)C1: 1.4
c1ccc2c(c1)ccc1cc3c(ccc4ccccc43)cc12: 6.22
CCCCOC(=O)C(C)Oc1ccc(Oc2ccc(C(F)(F)F)cn2)cc1 (stereo not given): 3.62
Clc1cccc2[nH]nnc12: 1.98
CNC(=O)N(C)c1nnc(C(C)(C)C)s1: 1.83
OC(Cn1cncn1)(c1ccc(F)cc1)c1ccccc1F (stereo not given): 1.88
CSc1nc(NC(C)C)nc(NC(C)C)n1: 2.85

Field: log10 Koc (L/kg). Fill in for each record below.
1. Nc1ccc(C(=O)O)cc1
2. CC(C)N(C(=O)SCC(Cl)=CCl)C(C)C

Result:
1: 2.5; 2: 3.28

* * *

Each entry gets criterion not met if its melting point stays under 80 °C, and criterion met if its melting point is 80 °C or above.

O=C1NC(=O)c2c1cccc2[N+](=O)[O-]: criterion met
Nc1ncnc(Nc2ccccc2)n1: criterion met

Ask: Could you please find out whether CCCC has melting point that meets 80 °C or exceeds it?
Result: criterion not met

Ask: Could you please find out whether CCCCCCN(C)C(=O)COC(=O)c1ccccc1 has melting point that meets 80 °C or exceeds it?
Result: criterion met

Ask: Could you please find out whether FC(F)(F)F has melting point that meets 80 °C or exceeds it?
Result: criterion not met

Ask: Could you please find out whether C/C=C/CCCCCCCC has melting point that meets 80 °C or exceeds it?
Result: criterion not met

Ask: Could you please find out whether O=[N+]([O-])c1cccc(SSc2cccc([N+](=O)[O-])c2)c1 has melting point that meets 80 °C or exceeds it?
Result: criterion met
